assay: Cytotoxicity against the growth of […] human colon cancer cells was determined using sulforhodamine B assay; assay type: functional, cell-based; details: Cancer cell lines
For each of the compounds below, state its IC50.
# number only, unit µM dropped from output

In: Would you kindly share the measured IC50 for `Cn1cc(NC(=O)c2cc(NC(=O)c3cc(NC(=O)c4ccc(N(CCCl)CCCl)cc4)cn3C)cn2C)cc1C(=O)NCCCN` ?
Out: 10

In: Query (compound): `Cn1cc(NC(=O)c2cc(NC(=O)c3cc(NC(=O)c4ccc(N(CCCl)CCCl)cc4)cn3C)cn2C)cc1C(=O)NCCCNC(=O)OCc1ccc([N+](=O)[O-])cc1` ; field requested: IC50
Out: 22.9

---

assay: Cytotoxicity against the growth of […] human colon cancer cells was determined using sulforhodamine B assay in the presence of Nitroreductase+NADH; format: functional, cell-based; settings: Cancer cell lines
value.type: IC50 (µM)
Unit µM implied. Number only.

In: // IC50 lookup, key: `Cn1cc(NC(=O)c2cc(NC(=O)c3cc(NC(=O)c4ccc(N(CCCl)CCCl)cc4)cn3C)cn2C)cc1C(=O)NCCCNC(=O)OCc1ccc([N+](=O)[O-])cc1`
Out: 9.4
